Target: T1, 4H2253-AA
T1 chain: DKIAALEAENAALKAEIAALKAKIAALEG
Assay: two-hybrid library CCmax;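 also: natural log of median RNA to DNA barcode read ratio; higher means stronger binding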
Conditions: mean of both orientations
measured.attribute: interaction score

1) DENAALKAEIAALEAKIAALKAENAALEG [4H1579-AA] :: -1.23
2) DKIAALEAEIAALKAKNAALEAEIAALKG [4H2162-AA] :: -1.34
3) DENAALKAKNAALEAEIAALKAEIAALKG [4H1930-AA] :: -1.35
4) DENAALKAKIAALEAKNAALEAEIAALKG [4H1842-AA] :: -1.72
